Data provenance is PubChem BioAssay AID248.

# System: L1210 leukemia ip in BDF1 mice, survival T/C
# EXPERIMENTAL_DETAILS: NCI In Vivo Anticancer Drug Screen. Data for tumor model L1210 Leukemia (intraperitoneal) in B6D2F1 (BDF1) mice
# TEST_SETTINGS: endpoint: mean survival time; dose: 200.0 mg/kg/injection; schedule: Q01DX009 (ip); vehicle: saline; higher = longer survival
Inconclusive results and toxic doses are left out.
MEASURED_PROPERTY: T/C

Use the examples below as a reference point.
1) O=P(CCCl)(CCCl)CCCl; 90 % of control
2) C[N+](C)(C)CCC[N+](C)(C)C; 106 % of control
3) CCCC(O)C(CC)CO (stereo not given); 100 % of control
4) O=C(O)CCNCCO; 98 % of control
5) CC#CCOCC1CN(C)C(=O)O1 (stereo not given); 90 % of control
6) NCCCOc1ccc([N+](=O)[O-])cc1Cl; 101 % of control
7) CC1CCC(O)C1O (stereo not given); 105 % of control
8) CC1(C)c2ccccc2C(C)(C(Cl)(Cl)Cl)c2ccc(Cl)cc21 (stereo not given); 95 % of control

Count: 7. Required value per item: T/C.
1. COC(=O)C(C)NCc1ccccc1 (stereo not given)
2. COc1cccc(/C=N\O)c1
3. Nc1ccccc1O
4. CC(C)(C)C(C)(O)CN (stereo not given)
5. Cc1cc[n+](CCC(N)=O)cc1
6. CC1=CP(=O)(O)CC1
7. COC(=O)CNC(=O)C(Cc1ccc(OCc2ccccc2)cc1)NC(=O)OC(C)(C)C (stereo not given)

100 % of control
96 % of control
105 % of control
95 % of control
93 % of control
98 % of control
106 % of control

Count: 6. Required value per item: T/C.
1. CCOC(=O)C(O)(CC)CC
2. O=C1COC(=O)CO1
3. O=c1[nH]cncc1CCC1OCCO1
4. C=CCC(CC)(C(=O)O)C(=O)O
5. COc1ccc(CC(=O)NCCc2ccc3cc(OC)c(OC)cc3c2)cc1OC
6. CC(C)(CCC(C)(C)NCCC#N)NCCC#N

101 % of control
86 % of control
109 % of control
93 % of control
86 % of control
105 % of control

Count: 4. Required value per item: T/C.
1. CC(=O)OC12C=C(C)C(C3C(=O)OC(=O)C31)C(C)(C)C2 (stereo not given)
2. N#Cc1cccnc1
3. COc1ccc(/C=C2\CSC/C(=C/c3ccc(OC)cc3)C2=O)cc1
4. Nc1nc(N)c2nc(NCc3ccc(C(=O)NC(CCC(=O)O)C(=O)O)cc3)cnc2n1 (stereo not given)

102 % of control
108 % of control
95 % of control
117 % of control
